Some molecules, each annotated with its measured melting point.

Here is how some molecules turned out for melting point.
                                   molecule  reported_measurement
0  Nc1ccccc1NC(=O)/C=C/c1ccn(S(=O)(=O)c2ccc(-c3ccccn3)s2)c1 [Compound 26]     171.3 to 174.7 °C
1  NCc1ccc(S(=O)(=O)n2ccc(/C=C/C(=O)NO)c2)cc1 [Compound 17]       227 to 228.6 °C
2  Nc1ccccc1NC(=O)/C=C/c1ccn(S(=O)(=O)c2ccc(-c3ccncc3)cc2)c1 [Compound 20]     244.2 to 246.5 °C
3  O=C(/C=C/c1ccn(S(=O)(=O)c2cccc(-c3ccccc3)c2)c1)NO [Compound 23]       114 to 159.4 °C
4  O=C(/C=C/c1ccn(S(=O)(=O)c2ccc(-c3ccncc3)cc2)c1)NO [Compound 18]     219.3 to 221.4 °C
5  Nc1ccccc1NC(=O)/C=C/c1ccn(S(=O)(=O)c2ccc(-c3cn[nH]c3)cc2)c1 [Compound 22]     232.3 to 240.9 °C
6  O=C(/C=C/c1ccn(S(=O)(=O)c2ccc(CN3CCOCC3)cc2)c1)NO [Compound 27]         168 to 170 °C
7  Nc1ccccc1NC(=O)/C=C/c1ccn(S(=O)(=O)c2ccc(-c3cccnc3)cc2)c1 [Compound 21]     199.7 to 202.3 °C

Turning now to a further molecule:
Request the reported melting point associated with O=C(/C=C/c1ccn(S(=O)(=O)c2ccc(-n3cccn3)cc2)c1)NO [Compound 25]
160.7 to 166.6 °C

* * *

Some molecules, each annotated with its measured pIC50.
- Test system: broad selection of non-malignant cell lines and fully transformed malignant cancer cell lines
- Protocol description: Anti-proliferative activity across cell line panel (Alamar Blue)
- Format: cell-based
- Condition: mean over non-malignant and malignant cell lines
Quick note: pIC50 values are minus log10 of concentrations in mol/L.

In [3]: df
Out[3]:
                                   molecule  assay_endpoint  reported_measurement
0  O=C(/C=C/c1ccn(S(=O)(=O)c2ccc(-c3ccccn3)s2)c1)NO [Compound 24]           pIC50                  6.24
1  O=C(/C=C/c1ccn(S(=O)(=O)c2ccc(-c3ccccc3)cc2)c1)NO [Compound 3]           pIC50                  6.07
2  CN(C)Cc1ccc(S(=O)(=O)n2ccc(/C=C/C(=O)NO)c2)cc1 [Compound 10]           pIC50                  5.34

Turning now to a further molecule:
Request the reported pIC50 associated with CN(CCc1cc2ccccc2[nH]1)Cc1ccc(S(=O)(=O)n2ccc(/C=C/C(=O)NO)c2)cc1 [Compound 9]
5.43
